Format: binding
settings: pH 7.4
measurement name: Gibbs binding free energy ΔGx^0

Look over these answered cases.
CC[C@H](C)[C@H](NC(=O)[C@H](C)NC(=O)CNC(=O)[C@H](Cc1ccccc1)NC(=O)[C@H](CC(C)C)NC(=O)CN)C(=O)N[C@@H](C)C(=O)NCC(=O)N[C@@H](Cc1ccccc1)C(=O)N[C@H](C(=O)N[C@@H](CCC(=O)O)C(=O)NCC(=O)NCC(=O)N[C@@H](Cc1c[nH]c2ccccc12)C(=O)N[C@@H](CCC(N)=O)C(=O)NCC(=O)N[C@@H](CCSC)C(=O)N[C@H](C(=O)N[C@@H](CC(=O)O)C(=O)NCC(=O)N[C@@H](Cc1c[nH]c2ccccc12)C(=O)N[C@@H](Cc1ccc(O)cc1)C(=O)NCC(N)=O)C(C)C)[C@@H](C)CC [23N+]: -7.67 ± 0.17 kcal/mol
CC[C@H](C)[C@H](NC(=O)[C@H](C)NC(=O)CNC(=O)[C@H](Cc1ccccc1)NC(=O)[C@H](CC(C)C)NC(=O)CNC(C)=O)C(=O)N[C@@H](C)C(=O)NCC(=O)N[C@@H](Cc1ccccc1)C(=O)N[C@H](C(=O)N[C@@H](CCC(=O)O)C(=O)NCC(=O)NCC(=O)N[C@@H](Cc1c[nH]c2ccccc12)C(=O)N[C@@H](CCC(N)=O)C(=O)NCC(=O)N[C@@H](CCSC)C(=O)N[C@H](C(=O)N[C@@H](CC(=O)O)C(=O)NCC(N)=O)C(C)C)[C@@H](C)CC [20Ac]: -6.86 ± 0.048 kcal/mol

Here is the next item to consider.
// Gibbs binding free energy ΔGx^0 value for CC[C@H](C)[C@H](NC(=O)[C@H](C)NC(=O)CNC(=O)[C@H](Cc1ccccc1)NC(=O)[C@H](CC(C)C)NC(=O)CN)C(=O)N[C@@H](C)C(=O)NCC(=O)N[C@@H](Cc1ccccc1)C(=O)N[C@H](C(=O)N[C@@H](CCC(=O)O)C(=O)NCC(=O)NCC(=O)N[C@@H](Cc1c[nH]c2ccccc12)C(=O)N[C@@H](CCC(N)=O)C(=O)NCC(=O)N[C@@H](CCSC)C(=O)N[C@H](C(=O)N[C@@H](CC(=O)O)C(=O)NCC(N)=O)C(C)C)[C@@H](C)CC [20N+] : -7.19 ± 0.096 kcal/mol

The reported measurements were obtained from paper PMC5855800.
